# Study System: T1, hCTLA4-His-BAP (human CTLA4 extracellular region with C-terminal His-tag and BAP-tag) (human, biotin on the BAP-tag)
# T1 construct: also called hCTLA4-His-Biotin
# T1 sequence (chain, as listed by the source limits assumed): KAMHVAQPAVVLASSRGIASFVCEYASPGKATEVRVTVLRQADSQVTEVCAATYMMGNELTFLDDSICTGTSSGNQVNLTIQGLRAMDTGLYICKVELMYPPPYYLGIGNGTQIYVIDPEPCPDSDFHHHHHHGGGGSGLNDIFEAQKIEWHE
# Experiment Description: SPR 37C, hCTLA4 1000 nM, ATP 10 µM; ATP 10 µM; binding amount at 1000 nM hCTLA4
Examples of binders with documented Binding to Human CTLA4 follow.

[
  {
    "Binder": "04H1077-G1m/04L1067-lam1 (antibody, human IgG1, lambda, V domains shown) VH: EVQLVESGGDLVKPGGGLRLSCAASGFTFSSRTMNWVRQAPGKGLEWVSSISTRSGYIYYAESVKGRFTISRDNAKNSLYLQMNSLRAEDTAVYYCARYGKREDMLWVFDYWGQGTLVTVSS VL: QSALTQPPSASGSPGQTVTISCDGPSTGVGDYNYVHWYQQHPGKAPKLMIYFTSKKPSGVPDRFSGSKSGNTASLTVSGLQAEDEADYFCSTYAAPLGPMFGGGTKLTVLG",
    "Binding to Human CTLA4": "0.131 per unit amount of antibody"
  },
  {
    "Binder": "04H1077-G1m/04L1041-lam1 (antibody, human IgG1, lambda, V domains shown) VH: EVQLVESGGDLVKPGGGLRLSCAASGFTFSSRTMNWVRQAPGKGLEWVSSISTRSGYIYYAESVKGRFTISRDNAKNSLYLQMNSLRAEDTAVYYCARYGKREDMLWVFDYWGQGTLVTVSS VL: QSALTQPPSASGSPGQTVTISCDGPSTDVGDYNYVHWYQQHPGKAPKLMIYFTSKKPSGVPDRFSGSKSGNTASLTVSGLQAEDEADYFCSTYAAPLGPMFGGGTKLTVLG",
    "Binding to Human CTLA4": "0.094 per unit amount of antibody"
  },
  {
    "Binder": "04H1077-G1m/04L1086-lam1 (antibody, human IgG1, lambda, V domains shown) VH: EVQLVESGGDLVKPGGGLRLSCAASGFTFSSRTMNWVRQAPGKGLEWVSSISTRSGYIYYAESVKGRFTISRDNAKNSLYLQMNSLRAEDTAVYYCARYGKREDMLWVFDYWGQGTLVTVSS VL: QSALTQPPSASGSPGQTVTISCDGPSTGVGDYNYVHWYQQHPGKAPKLMIYFTSKKPSGVPDRFSGSKSGNTASLTVSGLQAEDEADYFCQTYAAPLGPMFGGGTKLTVLG",
    "Binding to Human CTLA4": "0.106 per unit amount of antibody"
  }
]
